- Tested on: CCRIS mutagenicity, Ames/micronucleus/aberration tests
- Measurement notes: CCRIS mutagenicity studies
- Condition description: Test System: AMES SALMONELLA TYPHIMURIUM; Strain/Indicator: TA1537; Metabolic Activation: RAT, LIVER, S-9, AROCLOR 1254; Method: STANDARD PLATE
Activity calls are given as the source filed them. No rule for the calls is given here.
Observed property: mutagenic call

Look over these answered cases.
{"columns": ["Molecule", "Reported result"],
 "data": [
  ["Cc1ccccc1Cl", "inactive; negative"],
  ["CC[n+]1c2ccccc2nc2ccccc21", "active; positive"],
  ["C1=Cc2c(cc3ccc4cccc5ccc2c3c45)CC1", "active; positive"],
  ["O=C(CBr)c1ccccc1", "inactive; negative"],
  ["N#CSCSC#N", "inactive; negative"],
  ["CC/C(=C(\\c1ccccc1)c1ccc(OCCN(C)C)cc1)c1ccccc1", "inactive; negative"],
  ["O=C1c2ccccc2C(=O)c2c1ccc(O)c2O", "active; positive"],
  ["O=C(O)/C=C/c1ccccc1", "inactive; negative"]
]}

**Q:** Which mutagenic call is reported for this molecule? Oc1ccc2c(c1)OCO2
**A:** inactive; negative

**Q:** Please look up its mutagenic call: CC1(C)C(C=C(Cl)Cl)C1C(=O)OCc1cccc(Oc2ccccc2)c1 (stereo not drawn)
**A:** inactive; negative

**Q:** Consider the molecule O=S1(=O)OC(c2cc(Br)c(O)c(Br)c2)(c2cc(Br)c(O)c(Br)c2)c2ccccc21 and give its measured mutagenic call.
**A:** inactive; negative

**Q:** Find the recorded mutagenic call belonging to CCCCCCCC/C=C\CCCCCCCCN (tested in a mixture with another compound) and report it.
**A:** inactive; negative

**Q:** State the recorded mutagenic call for this entry: C1CCC2OCCOCCOC3CCCCC3OCCOCCOC2C1 (stereo not drawn)
**A:** inactive; negative

**Q:** Any idea what its mutagenic call is? The molecule is FC(F)(F)c1ccc(Cl)cc1
**A:** inactive; negative

**Q:** Returns the measured mutagenic call for the input molecule. Input: O=[N+]([O-])c1cc(C(F)(F)F)cc([N+](=O)[O-])c1Cl
**A:** inactive; negative

**Q:** Look at this molecule and give its reported mutagenic call. Cc1nnc(NS(=O)(=O)c2ccc(N)cc2)s1
**A:** inactive; negative

**Q:** What does the record list as mutagenic call for O=C(OCc1ccc(Cl)cc1Cl)c1cccc2cccnc12 ?
**A:** inactive; negative

**Q:** Looking for the measured mutagenic call of C#C[C@]1(OC(C)=O)CC[C@H]2[C@@H]3CCC4=CC(=O)CC[C@@H]4[C@H]3CC[C@@]21C , can you help?
**A:** inactive; negative

**Q:** Recorded mutagenic call for CC(C)Nc1nc(Cl)nc(NC(C)C)n1 , please?
**A:** inactive; negative

###

- Tested on: CCRIS mutagenicity, Ames/micronucleus/aberration tests
- Measurement notes: CCRIS mutagenicity studies
- Condition description: Test System: AMES SALMONELLA TYPHIMURIUM; Strain/Indicator: TA1535; Metabolic Activation: RAT, LIVER, S-9, AROCLOR 1254 (10%); Method: PREINCUBATION
Activity calls are given as the source filed them. The rule behind the calls is not given here.
Write down the outcome that applies. Available outcomes: active, inactive

**Q:** For N#CCc1ccccc1[N+](=O)[O-] , what call appears in the results of this test?
**A:** active

**Q:** I would be grateful if you could indicate the recorded call for O=C(O)C1=NN(c2ccc(S(=O)(=O)O)cc2)C(=O)C1N=Nc1ccc(S(=O)(=O)O)cc1.[Al] (configuration not stated) .
**A:** inactive

**Q:** Assay outcome for Clc1c(Cl)c(Br)c2c(c1Cl)-c1nc-2nc2[n-]c(nc3nc(nc4[n-]c(n1)c1c(Cl)c(Br)c(Cl)c(Br)c41)-c1c(Cl)c(Cl)c(Br)c(Cl)c1-3)c1c(Br)c(Cl)c(Br)c(Cl)c21.[Cu+2] : what was it?
**A:** inactive

**Q:** // return assay outcome for c1ccc(CSCc2ccccc2)cc1
**A:** inactive

**Q:** Fill in: this test's call for C=CC(=O)OCCN(C)C is ___
**A:** inactive

**Q:** Which outcome was assigned to NCCCCCCN in this test?
**A:** inactive

**Q:** Each molecule tested received a call. Report the one for CC1=CC(C)(C)Nc2ccccc21 .
**A:** inactive

**Q:** How did this test come out for Cc1c(Br)c(Br)c(Br)c(Br)c1Br ?
**A:** inactive

**Q:** Just curious, what result did O=C(O)CCC(=O)OC[C@@H](NC(=O)C(Cl)Cl)[C@H](O)c1ccc([N+](=O)[O-])cc1 get here?
**A:** inactive

**Q:** Short answer needed: outcome of this test for c1cc2c3c(cccc3c1)CC2 ?
**A:** inactive

**Q:** Test call for this molecule, please: CN(C)c1cccc(O)c1
**A:** inactive

**Q:** Check the results log: what was the call for CCOC(=O)OCC ?
**A:** inactive

###

- Test system: CCRIS mutagenicity, Ames/micronucleus/aberration tests
- Measurement notes: CCRIS mutagenicity studies
- Condition description: Test System: AMES SALMONELLA TYPHIMURIUM; Strain/Indicator: TA98; Metabolic Activation: RAT, LIVER, S-9, AROCLOR 1254 (10%); Method: PREINCUBATION
The source made the active and inactive calls. The rule behind the calls is not given here.
// allowed return values: active, inactive

**Q:** Assay outcome for OCC(CBr)(CBr)CBr : what was it?
**A:** inactive

**Q:** // param item: CC(=O)Nc1ccc(N)cc1 ; yields the recorded call
**A:** active

**Q:** Lab log entry: Nc1ccccc1N — outcome as called in the assay?
**A:** active

**Q:** Look up the recorded call for CN(C)c1cccc(O)c1 in this test.
**A:** active

**Q:** What call does the record list for CCCCOC(=O)c1ccccc1C(=O)OC1CCCCC1 ?
**A:** inactive

**Q:** Could you please tell me the result logged for O=C(O)c1ccc([N+](=O)[O-])cc1 in this assay?
**A:** inactive

**Q:** For this molecule, state the assay outcome: Nc1ccc(Cl)cc1Cl
**A:** inactive

**Q:** Hi, do you know how C=CC(=O)O came out in this test?
**A:** inactive

**Q:** Could you check what this test reported for Cc1ccc(N)c(C)c1 ?
**A:** active

**Q:** # fetch the recorded call for Nc1ccc([N+](=O)[O-])cc1O here
**A:** active

**Q:** Test call, this molecule: c1ccc(OP(Oc2ccccc2)Oc2ccccc2)cc1
**A:** inactive

**Q:** Which result was noted for this molecule in the test: O=C1NC(=O)c2cc([N+](=O)[O-])ccc21
**A:** active

**Q:** Record request — test call for Nc1ccc(C(=O)O)cc1
**A:** inactive

**Q:** So what was the verdict on C=CC1CC=CCC1 (configuration not stated) in this test?
**A:** inactive

**Q:** Please state the recorded outcome for this molecule: O=Cc1c(Cl)cccc1Cl
**A:** inactive

**Q:** Entry CCCCCCCCCCCCC/C([O-])=N/[N+](C)(C)CC(C)O (configuration not stated) : call = ?
**A:** inactive

**Q:** Query: recorded result category for Clc1nc(Cl)nc(Nc2ccccc2Cl)n1 in this test
**A:** inactive

**Q:** Hi, sorry to bother you, what did the test record for CCOc1ccc(N=Nc2ccc(-c3ccc(N=Nc4c(O)ccc5cc(S(=O)(=O)O)cc(S(=O)(=O)O)c45)c(C)c3)cc2C)cc1 ?
**A:** inactive

**Q:** Could you check what this test reported for Nc1nc(N)c2nc(-c3ccccc3)c(N)nc2n1 ?
**A:** inactive

**Q:** Hello, I am checking results. What call was entered for CCCCOP(=O)(OCCCC)Oc1ccccc1 ?
**A:** inactive

**Q:** Please let me know the test result on file for CCOC(=O)OCC .
**A:** inactive

**Q:** Hello, I am checking results. What call was entered for C=CCNCC=C ?
**A:** inactive

**Q:** Hey, what did the test say about COc1c(Cl)c(Cl)c(Cl)c(Cl)c1Cl ?
**A:** inactive

**Q:** Short answer needed: outcome of this test for Cc1ccc(N)c(N)c1 ?
**A:** active

**Q:** Please let me know the test result on file for NO .
**A:** inactive

**Q:** Just curious, what result did C#C[C@]1(O)CC[C@H]2[C@@H]3CCc4cc(O)ccc4[C@H]3CC[C@@]21C get here?
**A:** inactive

**Q:** Query: recorded result category for ClC(Cl)(Cl)Cl in this test
**A:** inactive

**Q:** What was the test verdict on CCC(Cl)C(Cl)C(Cl)CC(Cl)C(Cl)C(C)Cl (configuration not stated) ?
**A:** inactive

**Q:** Could you please tell me the result logged for CC(=O)CC(=O)Nc1ccccc1 in this assay?
**A:** inactive

**Q:** Per the assay record, what outcome was assigned to O=Cc1ccco1 ?
**A:** inactive

**Q:** Write down the call the test reported for this molecule. Item: C=CCOC(=O)C=C
**A:** inactive

**Q:** Entry O=c1ccc(=O)[nH][nH]1 : call = ?
**A:** inactive
